- measured_target: T1, human C5a (source not stated) (human, UniProt P01031 678-751)
- T1 sequence: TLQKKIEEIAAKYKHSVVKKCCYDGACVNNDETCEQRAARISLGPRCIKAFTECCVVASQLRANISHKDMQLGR
- protocol: cell-based or functional assay
Each entry below carries its reported ROS IC50.
Hey, just the number and the unit after it is fine.

[
  {
    "binder": "Cab38 (reformatted as human IgG1) (antibody, V domains shown) VH: EMQLVESGGGLVQPGGSLRLSCAASGFTFSDYYMQWVRQAPGKGPEWVGLIRNKAVGHTTQYAASVKGRFTISRDDSKNSVYLQMNSLKTEDTAVYYCVSRAGPPGLSWGQGVLVTVSS VL: DIVMTQSPLSLPVTPGEPASISCRSSQSLLASDGYNYIDWYLQKPGQSPQLLIYGGSNRASGVPDRFSGSGSGTDFTLKISRVEAEDVGVYFCLQHRALPPTFGQGTKLEIK",
    "ROS IC50": "0.53 nM"
  }
]

Turning now to a further binder:
Enquiry: Need ROS IC50 of Cab35-IgG1 (antibody, V domains shown) VH: EMQLVESGGGLVQPGGSLRLSCAASGFTFSDYYMQWVRQAPGKGPEWVGLIRNKAVGETTQYAASVKGRFTISRDDSKNSVYLQMNSLKTEDTAVYYCVSRAGPPGLSWGQGVLVTVSS VL: DIVMTQSPLSLPVTPGEPASISCRSSQSLLASDGYNYIDWYLQKPGQSPQLLIYGGSNRASGVPDRFSGSGSGTDFTLKISRVEAEDVGVYFCLQHRALPPTFGQGTKLEIK , thanks.
Return: 1.28 nM
